B1: CPEB3 Ribozyme (parent)
chain: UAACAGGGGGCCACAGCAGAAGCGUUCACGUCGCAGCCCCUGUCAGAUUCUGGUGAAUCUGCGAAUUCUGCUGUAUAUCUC

- Variants of: B1
- test_description: self-cleavage, relative activity (ratio to wild type); higher = more cleavage; in vitro, sequencing
reported_property: self-cleavage
Form: value (number only, do not type unit).

Illustrative cases are given below, each with its answer.
G6A U67A :: 0.4
G6A U72C :: 0.4
A15G C50A :: 0.4

The record that follows has no self-cleavage shown yet.
Summary for this variant, U66C U76A : self-cleavage is 0.41

Cited source for all entries: the RNAGym collection of RNA variant scans (doi:10.1093/nar/gkz1192)
